The reported numbers originate from PubChem BioAssay.

experiment: probe aNOTCH3 binding on compound microarray – biochemical, small-molecule microarray, 635/667 nm fluorescence, primary screen (AID 1120); conditions: higher = more signal;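 further: probe is a biotin-tagged antibody raised against NOTCH3 rather than NOTCH3 protein; score merges spot fluorescence near 667 nm with spot signal to noise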
Provide the reported composite z-score of each item.
One number for each entry.

Worked set:
| molecule | assay.readout | observed |
| --- | --- | --- |
| CCOc1cc(C(O)C2C=CC3C(=O)NC(=O)C3N2Nc2ccccn2)ccc1O (configuration not stated) | composite z-score | -0.0663 |
| COCCOC(=O)N1C(=O)[C@@]2(c3cc(C#CCC(C(=O)OC)C(=O)OC)ccc31)[C@H](c1ccc(OCCO)cc1)N1[C@H](c3ccccc3)[C@H](c3ccccc3)OC(=O)[C@H]1[C@@H]2C(N)=O | composite z-score | -0.0077 |
| COc1ccccc1CN1C(=O)c2ccccc2[C@@]2(Cc3ccccc3N(C3CC3)C2=O)[C@@H]1c1ccc(CO)cc1 | composite z-score | -0.15 |
| CC(C)C[C@@H]1NC(=O)[C@@]23C(=O)N[C@@H](Cc4ccccc4)C2[C@H](C)[C@@]2(C)O[C@H]2C3/C=C/C/C=C\CNC(=O)[C@@H]2CCCN2C1=O (some centres not stated) | composite z-score | -0.0026 |
| CN(C)CCCC[C@@H]1NC(=O)[C@H]2C[C@@H](C(=O)NCCCCCCNC(=O)CS)[C@@H](c3ccc(O)cc3)N2C1=O | composite z-score | -0.159 |

Each of the following entries comes with a recorded value; kindly state composite z-score for each.
1. C#CCOC(=O)N[C@H](C=CCCCC)c1ccccc1
2. C[N+](C)(C)CCCC[C@@H]1NC(=O)[C@H]2C[C@@H](C(=O)NCCCCCCN)[C@@H](c3cccc(OCCO)c3)N2C1=O

Return:
0.0077
0.536
